test: Human cell growth inhibition assay; type: cell-based; conditions: HepG2 cells (liver)

| compound | GI50 |
| --- | --- |
| CCOc1ccc2cc(-c3nn(CC(C)(C)CO)c4ncnc(N)c34)ccc2n1 [30u] | > 30 µM |
| CCOc1ccc2cc(-c3nn(CC(C)C)c4ncnc(N)c34)ccc2c1 [17q] | > 30 µM |
| Nc1ncnc2c1c(-c1ccc3cc(OC4CC4)ccc3c1)nn2CC1CCNCC1 [37j] | > 30 µM |

====

Reported GI50 values for the following compounds.
assay: Human cell growth inhibition assay; format: cell-based; settings: CRL-8155 cells (lymphocytic)
measurement_name: GI50

| compound | measurement_name | reported |
| --- | --- | --- |
| CCOc1ccc2cc(-c3nn(CC(C)C)c4ncnc(N)c34)ccc2c1 [17q] | GI50 | > 30 µM |
| Nc1ncnc2c1c(-c1ccc3cc(OC4CC4)ccc3c1)nn2CC1CCNCC1 [37j] | GI50 | > 30 µM |
| CCOc1ccc2cc(-c3nn(CC(C)(C)CO)c4ncnc(N)c34)ccc2n1 [30u] | GI50 | > 30 µM |

====

This document collects pIC50 values reported for Abl tyrosine kinase (Homo sapiens, UniProt P00519).
pIC50: −log10 of the molar value.
measurement_name: pIC50

| molecule | system_under_test | measurement_name | qualifier_sign | reported |
| --- | --- | --- | --- | --- |
| CCOc1ccc2cc(-c3nn(CC(C)C)c4ncnc(N)c34)ccc2c1 [17q] | Abl tyrosine kinase (Homo sapiens, UniProt P00519) | pIC50 | = | 5.57 |
| CCOc1ccc2cc(-c3nn(CC(C)(C)CO)c4ncnc(N)c34)ccc2n1 [30u] | Abl tyrosine kinase (Homo sapiens, UniProt P00519) | pIC50 | < | 5.00 |

====

Consider the following molecules and their measured pIC50 readings.
target: recombinant PfCDPK4 (Plasmodium falciparum, UniProt Q8IBS5); test: PfCDPK4 luminescence-based
Sequence (Q8IBS5 whole entry): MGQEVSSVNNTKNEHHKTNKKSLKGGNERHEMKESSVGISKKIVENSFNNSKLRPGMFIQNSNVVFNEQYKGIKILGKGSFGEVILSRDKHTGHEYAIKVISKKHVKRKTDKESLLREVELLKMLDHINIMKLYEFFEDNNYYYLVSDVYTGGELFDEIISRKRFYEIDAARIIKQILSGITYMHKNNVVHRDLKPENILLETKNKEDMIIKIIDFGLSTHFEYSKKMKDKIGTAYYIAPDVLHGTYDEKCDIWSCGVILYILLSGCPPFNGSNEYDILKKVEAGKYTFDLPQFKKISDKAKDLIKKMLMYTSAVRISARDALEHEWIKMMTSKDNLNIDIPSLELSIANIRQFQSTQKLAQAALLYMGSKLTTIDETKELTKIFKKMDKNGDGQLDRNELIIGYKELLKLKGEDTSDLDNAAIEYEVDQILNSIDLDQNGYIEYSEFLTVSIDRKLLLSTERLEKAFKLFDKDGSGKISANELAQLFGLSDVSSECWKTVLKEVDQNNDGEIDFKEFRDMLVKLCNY
pIC50: −log10 of the molar value.

| molecule | qualifier_sign | pIC50 |
| --- | --- | --- |
| CCOc1ccc2cc(-c3nn(CC(C)(C)CO)c4ncnc(N)c34)ccc2n1 [30u] | = | 8.40 |
| Nc1ncnc2c1c(-c1ccc3cc(OC4CC4)ccc3c1)nn2CC1CCNCC1 [37j] | = | 8.70 |
| CCOc1ccc2cc(-c3nn(C(C)C)c4ncnc(N)c34)ccc2n1 [30a] | > | 7.70 |
| CCOc1ccc2cc(-c3nn(CC(C)C)c4ncnc(N)c34)ccc2c1 [17q] | = | 7.85 |
